Where do the numbers come from? From the supplement of paper PMC10126150.

- Tested on: ATP;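 further: ATP exposure 15 min at 22 °C before imaging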
- RUN_DESCRIPTION: switch fluorescence ratio, 500 uM ATP over buffer (Cy3 cluster intensity, sum of 5 cycles each) (fold (ratio)); higher = stronger signal-on switching upon ATP binding; sequences stand for … in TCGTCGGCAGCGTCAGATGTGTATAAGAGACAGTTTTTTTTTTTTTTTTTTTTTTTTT…TC
- SETTINGS: aptamer strand: ATP DNA aptamer (quencher-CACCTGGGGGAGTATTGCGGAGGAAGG + anchor), 100 nM annealed; ATP concentration: 500 uM
Each entry below lists one item and its recorded switch fluorescence ratio value.
Quick one: just the number, no unit, thanks!

Examples with their reported switch fluorescence ratio follow.
# SEQUENCE_INPUT, switch fluorescence ratio
measured = [
    ("TTCTGAGCTT", 1.07),
    ("CAATGTCGTT", 0.985),
    ("CTTCTACGAT", 0.998),
]

Inquiry: Requested read-out: switch fluorescence ratio. Entry: GGGGCAAATT
Reply text: 1.05

Inquiry: Now this one: TTTCTTCGCT
Reply text: 1.01
